Reference source for all entries: patent US20240166635A1

molecular target: CDK7/CyclinH/MAT1 (Homo sapiens (Human)); experiment: CDK7/CyclinH/MAT1 kinase inhibitory activity (Caliper mobility shift)
Sequence (P50613 whole entry): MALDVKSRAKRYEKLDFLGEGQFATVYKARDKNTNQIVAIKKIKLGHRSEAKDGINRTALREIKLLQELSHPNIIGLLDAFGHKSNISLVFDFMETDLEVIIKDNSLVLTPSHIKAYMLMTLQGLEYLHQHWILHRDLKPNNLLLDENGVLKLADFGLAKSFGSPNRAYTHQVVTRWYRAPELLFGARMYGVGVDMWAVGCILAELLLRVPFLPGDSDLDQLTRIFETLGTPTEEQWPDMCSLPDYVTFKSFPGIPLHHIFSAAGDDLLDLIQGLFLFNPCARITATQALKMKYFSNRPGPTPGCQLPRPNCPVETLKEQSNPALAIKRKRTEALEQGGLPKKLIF
Sequence (P51946 whole entry partner): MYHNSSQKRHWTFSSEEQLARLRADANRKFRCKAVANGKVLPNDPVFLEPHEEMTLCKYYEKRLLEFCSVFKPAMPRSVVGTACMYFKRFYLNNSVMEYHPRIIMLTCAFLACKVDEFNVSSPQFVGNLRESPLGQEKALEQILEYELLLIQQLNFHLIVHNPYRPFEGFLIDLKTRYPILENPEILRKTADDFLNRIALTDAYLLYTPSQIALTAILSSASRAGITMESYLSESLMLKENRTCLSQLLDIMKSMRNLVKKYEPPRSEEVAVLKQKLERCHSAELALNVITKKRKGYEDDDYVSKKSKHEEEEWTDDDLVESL
Sequence (P51948 whole entry partner): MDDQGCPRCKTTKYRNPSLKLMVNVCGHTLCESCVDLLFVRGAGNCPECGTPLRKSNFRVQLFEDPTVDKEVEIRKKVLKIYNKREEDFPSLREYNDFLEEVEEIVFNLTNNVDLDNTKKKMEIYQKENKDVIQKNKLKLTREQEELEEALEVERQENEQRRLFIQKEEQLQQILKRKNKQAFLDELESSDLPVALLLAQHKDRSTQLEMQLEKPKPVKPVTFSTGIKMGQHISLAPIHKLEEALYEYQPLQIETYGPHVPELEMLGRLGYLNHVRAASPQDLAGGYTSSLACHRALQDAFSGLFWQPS
pIC50: −log10 of the molar value.
Property name: pIC50

1. CC(C)NS(=O)(=O)c1ccc(Nc2ncc(Cl)c(OC3CCCC3O)n2)cc1 (single isomer, unassigned) [Example 138a]    6.00 to 7.00
2. CNS(=O)(=O)c1ccc(Nc2ncc(C#N)c(OC3CCC[C@H]3O)n2)cc1 (mixture of isomers) [Example 26]    ≤ 6.00
3. CS(=O)(=O)N1CCC(Nc2ncc(C(F)(F)F)c(OC3CCCCC3O)n2)CC1 (single isomer, unassigned) [Example 120a]    7.00 to 8.00
4. CC1(COc2nc(NC3CCN(S(C)(=O)=O)CC3)ncc2C#N)CCC1 [Example 53]    6.00 to 7.00
5. CS(=O)(=O)N1CCC(Nc2ncc(C#N)c(N3CCCCC3)n2)CC1 [Example 89]    ≤ 6.00
6. CC1(O)CCCC1Oc1nc(Nc2ccc(S(N)(=O)=O)cc2)ncc1C#N (single isomer, unassigned) [Example 23a]    6.00 to 7.00

====

molecular target: CDK2/CyclinE1 (Homo sapiens (Human), UniProt P24941); assay: CDK2/CyclinE1 kinase inhibitory activity (Caliper mobility shift); conditions: read-out: CDK2/Cyclin El IC50
Property name: IC50

1) Cc1cnc(Nc2ccc(S(=O)(=O)NC3CC3)cc2)nc1OC1CCCC1O (single isomer, unassigned) [Example 146a]    < 0.01 µM
2) [2H]C([2H])([2H])NS(=O)(=O)c1ccc(Nc2ncc(C(F)(F)F)c(OC3COCCC3O)n2)cc1 (single isomer, unassigned) [Example 117a]    < 0.01 µM
3) NS(=O)(=O)N1CCC(Nc2ncc(C(F)(F)F)c(OC3CCCCCC3O)n2)CC1 (single isomer, unassigned) [Example 122a]    < 0.01 µM
4) CC1(O)CCC(F)(F)CC1Oc1nc(NC2CCN(S(C)(=O)=O)CC2)ncc1C#N (single isomer, unassigned) [Example 46a]    0.1 to 1 µM
5) N#Cc1cnc(Nc2ccc(S(N)(=O)=O)cc2)nc1N1CCC[C@H](F)C1 [Example 81]    0.01 to 0.1 µM
6) C[C@]1(O)CC(F)(F)C[C@H]1Oc1nc(NC2CCN(S(C)(=O)=O)CC2)ncc1C#N (relative stereo) [Example 4a]    < 0.01 µM
7) CC1(O)CCCC1Oc1nc(Nc2ccc(S(N)(=O)=O)cc2)ncc1C#N (single isomer, unassigned) [Example 23b]    0.01 to 0.1 µM
8) CNS(=O)(=O)N1CCC(Nc2ncc(C(F)(F)F)c(OC3CCCCCC3O)n2)CC1 (single isomer, unassigned) [Example 123a]    0.01 to 0.1 µM
9) CNS(=O)(=O)c1ccc(Nc2ncc(C#N)c(N3CCCCC3)n2)cc1 [Example 91]    < 0.01 µM
10) N#Cc1cnc(Nc2ccc(S(N)(=O)=O)cc2)nc1O[C@@H]1CCCC[C@@H]1O (single isomer, unassigned) [Example 2a]    < 0.01 µM
11) [2H]C([2H])([2H])NS(=O)(=O)c1ccc(Nc2ncc(C(F)(F)F)c(OC3CCCC3)n2)cc1 [Example 108]    < 0.01 µM
12) CS(=O)(=O)N1CCC(Nc2ncc(C#N)c(N3CCCCC3)n2)CC1 [Example 89]    0.01 to 0.1 µM
13) CS(=O)(=O)N1CCC(Nc2ncc(C(F)(F)F)c(OC3CCCCCC3O)n2)CC1 (single isomer, unassigned) [Example 121a]    < 0.01 µM
14) N#Cc1cnc(Nc2ccc(S(=O)(=O)NC3CCC3)cc2)nc1OC1CCC[C@H]1O (mixture of isomers) [Example 25]    < 0.01 µM
15) [2H]C([2H])([2H])NS(=O)(=O)c1ccc(Nc2ncc(Cl)c(OC3COCC3(C)O)n2)cc1 (single isomer, unassigned) [Example 140a]    < 0.01 µM
16) CNc1cccc(-c2nc(Nc3ccc(S(N)(=O)=O)cc3)ncc2C#N)c1 [Example 97]    0.01 to 0.1 µM
17) N#Cc1cnc(Nc2ccc(S(N)(=O)=O)cc2)nc1OC1CCCC1CO (single isomer, unassigned) [Example 18b]    < 0.01 µM
18) NS(=O)(=O)c1ccc(Nc2ncc(Br)c(OC3CCCC3O)n2)cc1 (single isomer, unassigned) [Example 141b]    < 0.01 µM
19) CC(C)NS(=O)(=O)c1ccc(Nc2ncc(C(F)(F)F)c(OC3CCCC3O)n2)cc1 (single isomer, unassigned) [Example 106a]    < 0.01 µM
20) Cc1cccc(-c2nc(Nc3ccc(S(N)(=O)=O)cc3)ncc2C#N)c1 [Example 94]    < 0.01 µM
21) N#Cc1cnc(Nc2ccc(S(N)(=O)=O)cc2)nc1OC1CCCCCC1O (single isomer, unassigned) [Example 22b]    < 0.01 µM
22) N#Cc1cnc(Nc2ccc(S(N)(=O)=O)cc2)nc1OC1CCCC1 [Example 10]    < 0.01 µM
23) NS(=O)(=O)c1ccc(Nc2ncc(C(F)(F)F)c(O[C@H]3[C@@H]4CC[C@@H](C4)[C@H]3O)n2)cc1 (single isomer, unassigned) [Example 113b]    < 0.01 µM

====

target: CDK4/Cyclin D1 (Homo sapiens (Human)); experiment: CDK4/CyclinD1 kinase inhibitory activity (Caliper mobility shift)
Sequence (P11802 whole entry): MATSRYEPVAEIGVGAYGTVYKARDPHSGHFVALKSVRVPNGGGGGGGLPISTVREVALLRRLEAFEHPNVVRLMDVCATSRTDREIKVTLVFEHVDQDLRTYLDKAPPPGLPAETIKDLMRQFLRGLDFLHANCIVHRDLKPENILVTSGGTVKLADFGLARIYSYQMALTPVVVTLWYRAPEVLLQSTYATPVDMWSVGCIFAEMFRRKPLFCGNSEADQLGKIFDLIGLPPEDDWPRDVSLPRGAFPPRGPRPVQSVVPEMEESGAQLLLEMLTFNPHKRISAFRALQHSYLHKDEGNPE
Sequence (P24385 whole entry partner): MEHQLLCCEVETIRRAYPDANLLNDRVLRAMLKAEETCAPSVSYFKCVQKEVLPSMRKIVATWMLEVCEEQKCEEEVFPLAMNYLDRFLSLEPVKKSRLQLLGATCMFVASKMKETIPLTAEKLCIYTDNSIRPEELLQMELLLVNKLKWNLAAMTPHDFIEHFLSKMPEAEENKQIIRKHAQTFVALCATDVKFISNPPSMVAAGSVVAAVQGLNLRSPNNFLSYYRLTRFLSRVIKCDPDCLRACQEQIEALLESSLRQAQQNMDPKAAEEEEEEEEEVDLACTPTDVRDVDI
pIC50: −log10 of the molar value.
Property name: pIC50

1) CNS(=O)(=O)c1ccc(Nc2ncc(C#N)c(N3CCCCC3)n2)cc1 [Example 91]    7.00 to 8.00
2) CNS(=O)(=O)c1ccc(Nc2ncc(Cl)c(OC3CCCC3O)n2)cc1 (single isomer, unassigned) [Example 137a]    6.00 to 7.00
3) CC1(NS(=O)(=O)c2ccc(Nc3ncc(Br)c(O[C@@H]4CCC[C@@H]4O)n3)cc2)COC1 (single isomer, unassigned) [Example 131a]    6.00 to 7.00
4) CC1(O)CCCC1Oc1nc(NC2CCN(S(=O)(=O)CC(F)(F)F)CC2)ncc1C#N (single isomer, unassigned) [Example 43b]    7.00 to 8.00

====

molecular target: CDK9/CyclinT1 (Homo sapiens (Human)); assay: CDK9/CyclinT1 kinase inhibitory activity (Caliper mobility shift); details: read-out: CDK9/Cyclin T1 IC50
Sequence (P50750 whole entry): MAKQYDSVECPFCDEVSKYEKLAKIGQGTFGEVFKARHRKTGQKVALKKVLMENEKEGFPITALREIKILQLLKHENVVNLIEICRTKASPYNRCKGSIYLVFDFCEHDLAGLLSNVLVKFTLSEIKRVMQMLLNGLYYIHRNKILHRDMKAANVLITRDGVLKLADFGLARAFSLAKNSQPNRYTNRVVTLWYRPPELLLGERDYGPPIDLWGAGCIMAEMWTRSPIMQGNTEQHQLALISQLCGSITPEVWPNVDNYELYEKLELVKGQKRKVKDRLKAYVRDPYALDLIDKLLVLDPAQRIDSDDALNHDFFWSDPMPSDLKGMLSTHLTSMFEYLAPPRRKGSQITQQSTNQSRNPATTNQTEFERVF
Sequence (O60563 whole entry partner): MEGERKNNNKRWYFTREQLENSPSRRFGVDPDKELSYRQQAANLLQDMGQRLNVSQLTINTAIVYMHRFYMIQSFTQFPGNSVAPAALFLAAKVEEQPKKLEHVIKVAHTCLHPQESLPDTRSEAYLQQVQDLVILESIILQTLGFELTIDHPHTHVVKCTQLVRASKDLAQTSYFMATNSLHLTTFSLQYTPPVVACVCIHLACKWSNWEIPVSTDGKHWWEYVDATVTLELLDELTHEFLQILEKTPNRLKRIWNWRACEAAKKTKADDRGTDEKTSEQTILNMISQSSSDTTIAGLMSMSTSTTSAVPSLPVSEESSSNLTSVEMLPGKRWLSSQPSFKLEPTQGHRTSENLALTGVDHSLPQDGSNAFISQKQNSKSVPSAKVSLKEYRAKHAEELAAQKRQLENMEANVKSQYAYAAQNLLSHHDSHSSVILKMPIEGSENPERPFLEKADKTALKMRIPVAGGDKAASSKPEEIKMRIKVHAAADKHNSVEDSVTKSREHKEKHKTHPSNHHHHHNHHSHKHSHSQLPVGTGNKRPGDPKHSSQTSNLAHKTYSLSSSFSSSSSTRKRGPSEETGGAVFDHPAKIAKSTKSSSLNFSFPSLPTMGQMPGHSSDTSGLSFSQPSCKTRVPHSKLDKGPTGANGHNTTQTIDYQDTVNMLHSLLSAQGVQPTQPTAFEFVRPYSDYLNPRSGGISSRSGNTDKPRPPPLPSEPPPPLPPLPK
pIC50: −log10 of the molar value.
Property name: pIC50

1) [2H]C([2H])([2H])NS(=O)(=O)c1ccc(Nc2ncc(Cl)c(OC3COCC3(C)O)n2)cc1 (single isomer, unassigned) [Example 140a]    6.00 to 7.00
2) CC1(O)COCCC1Oc1nc(NC2CCN(S(C)(=O)=O)CC2)ncc1C#N (single isomer, unassigned) [Example 45a]    6.00 to 7.00
3) CS(=O)(=O)N1CCC(Nc2ncc(C#N)c(N3CCCCC3)n2)CC1 [Example 89]    ≤ 6.00
4) Cc1cnc(Nc2ccc(S(=O)(=O)NC(C)C)cc2)nc1OC1CCCC1O (single isomer, unassigned) [Example 147a]    6.00 to 7.00
5) N#Cc1cnc(Nc2ccc(S(N)(=O)=O)cc2)nc1N1CCCC(c2ccccc2)C1 (single isomer, unassigned) [Example 85]    6.00 to 7.00
6) CC(C)NS(=O)(=O)c1ccc(Nc2ncc(Cl)c(OC3CCCC3O)n2)cc1 (single isomer, unassigned) [Example 138a]    6.00 to 7.00
7) N#Cc1cnc(Nc2ccc(S(N)(=O)=O)cc2)nc1N1CCC[C@@H](O)C1 [Example 70]    6.00 to 7.00
8) CNS(=O)(=O)c1ccc(Nc2ncc(C#N)c(OC3CCCC3(C)O)n2)cc1 (single isomer, unassigned) [Example 34a]    6.00 to 7.00
9) [2H]C([2H])([2H])NS(=O)(=O)c1ccc(Nc2ncc(Br)c(OC3CCCC3O)n2)cc1 (single isomer, unassigned) [Example 143b]    6.00 to 7.00
10) Cn1cc(S(=O)(=O)N2CCC(Nc3ncc(C#N)c(OC4CCCC4(C)O)n3)CC2)cn1 (single isomer, unassigned) [Example 48a]    6.00 to 7.00
11) CC1(COc2nc(NC3CCN(S(C)(=O)=O)CC3)ncc2C#N)CCCC1 [Example 54]    6.00 to 7.00
12) CC1(O)CCCC1Oc1nc(Nc2ccc(S(N)(=O)=O)cc2)ncc1C#N (single isomer, unassigned) [Example 23a]    7.00 to 8.00
13) CC1(O)CC(F)(F)CCC1Oc1nc(NC2CCN(S(C)(=O)=O)CC2)ncc1C#N (single isomer, unassigned) [Example 47a]    6.00 to 7.00
14) [2H]C([2H])([2H])NS(=O)(=O)c1ccc(Nc2ncc(C)c(OC3CCCC3O)n2)cc1 (single isomer, unassigned) [Example 148b]    ≤ 6.00
15) [2H]C([2H])([2H])NS(=O)(=O)c1ccc(Nc2ncc(C)c(OC3CCCC3O)n2)cc1 (single isomer, unassigned) [Example 148a]    6.00 to 7.00
16) C[C@]1(O)CC(F)(F)C[C@H]1Oc1nc(NC2CCN(S(C)(=O)=O)CC2)ncc1C#N (relative stereo) [Example 4b]    ≤ 6.00
17) O=S(=O)(NC1CC1)c1ccc(Nc2ncc(C(F)(F)F)c(OC3CCCC3O)n2)cc1 (single isomer, unassigned) [Example 107a]    6.00 to 7.00
18) COCCS(=O)(=O)N1CCC(Nc2ncc(C#N)c(OCC3(C)CCCC3)n2)CC1 [Example 58]    6.00 to 7.00
19) NS(=O)(=O)c1ccc(Nc2ncc(C(F)(F)F)c(O[C@@H]3CCC[C@@H]3O)n2)cc1 (single isomer, unassigned) [Example 99a]    7.00 to 8.00
20) [2H]C([2H])([2H])NS(=O)(=O)c1ccc(Nc2ncc(CC)c(OC3COCC3(C)O)n2)cc1 (single isomer, unassigned) [Example 150a]    6.00 to 7.00
21) [2H]C([2H])([2H])NS(=O)(=O)c1ccc(Nc2ncc(C(F)(F)F)c(O[C@H]3CCCOC[C@H]3O)n2)cc1 (single isomer, unassigned) [Example 103a]    6.00 to 7.00
22) CNS(=O)(=O)c1ccc(Nc2ncc(C#N)c(OC3CCC[C@H]3O)n2)cc1 (mixture of isomers) [Example 26]    ≤ 6.00
